target_system: T1, human c-Met/Fc fusion protein (R&D Systems) (human, UniProt P08581 25-932)
T1 construct: Bought reagent; also called c-Met/Fc chimera (R&D Systems Cat. No. 358-MT/CF); not shown: Fc part of the bought fusion
T1 sequence (P08581 25-932 limits assumed): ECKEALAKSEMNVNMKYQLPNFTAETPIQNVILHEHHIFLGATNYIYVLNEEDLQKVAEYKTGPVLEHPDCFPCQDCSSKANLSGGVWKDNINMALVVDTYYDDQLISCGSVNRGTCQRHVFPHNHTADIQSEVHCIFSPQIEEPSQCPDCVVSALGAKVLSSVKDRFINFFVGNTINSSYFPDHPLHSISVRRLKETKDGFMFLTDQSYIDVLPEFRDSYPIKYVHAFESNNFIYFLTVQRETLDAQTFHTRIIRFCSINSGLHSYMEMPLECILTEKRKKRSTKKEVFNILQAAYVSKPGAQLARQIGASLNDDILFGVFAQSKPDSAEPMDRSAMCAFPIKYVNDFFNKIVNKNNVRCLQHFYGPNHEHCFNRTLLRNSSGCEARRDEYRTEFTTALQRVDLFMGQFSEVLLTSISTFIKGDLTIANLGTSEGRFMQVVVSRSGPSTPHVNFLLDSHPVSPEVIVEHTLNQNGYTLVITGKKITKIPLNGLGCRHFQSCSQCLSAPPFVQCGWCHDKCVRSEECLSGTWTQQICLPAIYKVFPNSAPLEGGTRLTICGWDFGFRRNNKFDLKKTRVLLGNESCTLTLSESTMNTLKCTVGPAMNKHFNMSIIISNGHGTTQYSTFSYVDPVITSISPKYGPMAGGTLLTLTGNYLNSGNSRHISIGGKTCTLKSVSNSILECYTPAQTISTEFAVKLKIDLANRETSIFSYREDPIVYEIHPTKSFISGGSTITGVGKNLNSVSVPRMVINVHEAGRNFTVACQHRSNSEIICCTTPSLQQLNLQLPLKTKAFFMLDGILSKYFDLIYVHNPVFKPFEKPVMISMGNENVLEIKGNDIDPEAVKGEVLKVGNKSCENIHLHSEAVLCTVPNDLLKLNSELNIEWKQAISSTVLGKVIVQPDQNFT
experiment_notes: competition ELISA on coated c-Met/Fc; competitor biotinylated chAbF46 (0.1 ug/ml)
Description: The antigens were coated by overnight incubation at a temperature of 4° C. using Nunc Immuno MaxiSort 96 well flat bottom microtiter plate (Fisher Cat. No. DIS-971-030J) and 1.0 μg/ml and 100 μl/well of c-Met/Fc chimera (R&D Systems Cat. No. 358-MT/CF). chAbF46 and 20 humanized antibodies were diluted and at a concentration of 10 μg/ml to 0.078 μg/ml, they were mixed with biotinylated chAbF46 (0.1 μg/ml, final conc.), followed by incubation at a temperature of 37° C. for 2 hours. […]
readout_type: IC50 (nM)
Lab book: enter the figure in nM, no units written.

{"binder": "deimmunized humanized antibody huAbF46 including a combination of AT-VH2 and AT-Vk4 (antibody, IgG1, V domains shown, expressed from pANTVhG1 and pANTVk vectors (IgG1, kappa) in HEK293 cells; also called AT-VH2/AT-Vk4) VH: EVKLVESGGGLVQPGGSLRLSCATSGFTFTDYYMSWVRQPPGKGLEWLGFIRNKANGYTTEYSASVKGRFTISRDNSKSTLYLQMNSLRAEDTATYYCARDNWFAYWGQGTLVTVSS VL: DIQMTQSPSSLSASVGDRVTITCKSSQSLLASGNQNNYLAWHQQKPGKAPKMLIIWASTRVSGVPDRFSGSGSGTDFTLTISSLQAEDVAVYYCQQSYSAPLTFGQGTKLEIK", "IC50 (nM)": 1.37}
{"binder": "deimmunized humanized antibody huAbF46 including a combination of AT-VH4 and AT-Vk2 (antibody, IgG1, V domains shown, expressed from pANTVhG1 and pANTVk vectors (IgG1, kappa) in HEK293 cells; also called AT-VH4/AT-Vk2) VH: EVQLVESGGGLVQPGGSLRLSCATSGFTFTDYYMSWVRQPPGKGLEWLGFIRNKANGYTTEYSASVKGRFTISRDNSKNTLYLQMNSLRAEDTATYYCARDNWFAYWGQGTLVTVSS VL: DILMTQSPSSLSASVGDRVTITCKSSQSLLASGNQNNYLAWHQQKPGKAPKMLIIWASTRVSGVPDRFIGSGSGTDFTLTISSLQAEDVAVYYCQQSYSAPLTFGQGTKLEIK", "IC50 (nM)": 3.13}
{"binder": "deimmunized humanized antibody huAbF46 including a combination of AT-VH4 and AT-Vk1 (antibody, IgG1, V domains shown, expressed from pANTVhG1 and pANTVk vectors (IgG1, kappa) in HEK293 cells; also called AT-VH4/AT-Vk1) VH: EVQLVESGGGLVQPGGSLRLSCATSGFTFTDYYMSWVRQPPGKGLEWLGFIRNKANGYTTEYSASVKGRFTISRDNSKNTLYLQMNSLRAEDTATYYCARDNWFAYWGQGTLVTVSS VL: DILMTQSPSSLTASVGDRVTMTCKSSQSLLASGNQNNYLAWHQQKPGKAPKMLIIWASTRVSGVPDRFIGSGSGTDFTLTISSLQAEDVAVYYCQQSYSAPLTFGQGTKLEIK", "IC50 (nM)": 2.4}

Now examine the next entry.
Documented IC50 of deimmunized humanized antibody huAbF46 including a combination of AT-VH5 and AT-Vk4 (antibody, IgG1, V domains shown, expressed from pANTVhG1 and pANTVk vectors (IgG1, kappa) in HEK293 cells; also called AT-VH5/AT-Vk4) VH: EVQLVESGGGLVQPGGSLRLSCATSGFTFTDYYMSWVRQPPGKGLEWLGFIRNKANGYTTEYSASVKGRFTISRDNSKNTLYLQMNSLRAEDTAVYYCARDNWFAYWGQGTLVTVSS VL: DIQMTQSPSSLSASVGDRVTITCKSSQSLLASGNQNNYLAWHQQKPGKAPKMLIIWASTRVSGVPDRFSGSGSGTDFTLTISSLQAEDVAVYYCQQSYSAPLTFGQGTKLEIK : 1.62
